B1: Hairpin Ribozyme (parent)
chain: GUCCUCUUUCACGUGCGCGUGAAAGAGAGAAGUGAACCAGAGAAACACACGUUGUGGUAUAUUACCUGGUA

Variants of: B1
Test: self-cleavage, relative activity (ratio to wild type); higher = more cleavage; co-transcriptional
ASSAY ENDPOINT: self-cleavage
Numbers only.

1) A23G G56C
0.145

The following variants each have a reported value; give each one's self-cleavage.
1. U20A A22U
2. A26C G57A
3. C4G C18A
4. G21C A59G
5. A23U G27U

1: 0.849; 2: 0.141; 3: 0.194; 4: 0.206; 5: 0.289

The following variants each have a reported value; give each one's self-cleavage.
1. U8C U9A
2. C18U G19C
3. A39G A71U
4. C4U A11C
5. A36U G56A
6. C46G G51U
7. A11C A23C
8. G15C C38U

1. 0.266
2. 0.89
3. 0.176
4. 0.191
5. 0.0631
6. 0.164
7. 0.622
8. 0.6
